Target: Ms5HT7 receptor (Manduca sexta, UniProt S4UQW2)
Construct: Xenopus oocytes (pBS-MXT, receptor cRNA alone)
Sequence (S4UQW2 38-563): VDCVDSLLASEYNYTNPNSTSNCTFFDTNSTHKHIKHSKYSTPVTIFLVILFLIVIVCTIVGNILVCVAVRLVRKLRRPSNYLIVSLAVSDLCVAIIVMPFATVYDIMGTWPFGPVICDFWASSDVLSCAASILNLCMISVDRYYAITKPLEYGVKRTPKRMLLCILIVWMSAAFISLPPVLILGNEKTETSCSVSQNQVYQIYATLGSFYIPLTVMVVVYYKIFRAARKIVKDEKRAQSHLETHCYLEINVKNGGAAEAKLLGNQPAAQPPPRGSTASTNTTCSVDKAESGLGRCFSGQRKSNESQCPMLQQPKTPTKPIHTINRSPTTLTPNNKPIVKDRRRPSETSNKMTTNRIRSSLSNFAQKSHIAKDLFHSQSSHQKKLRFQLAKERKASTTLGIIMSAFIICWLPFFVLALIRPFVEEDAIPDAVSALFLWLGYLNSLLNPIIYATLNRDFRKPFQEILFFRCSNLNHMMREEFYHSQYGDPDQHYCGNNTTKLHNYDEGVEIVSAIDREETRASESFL
Assay: two-electrode voltage clamp, Xenopus oocytes, endogenous calcium-dependent chloride current
pEC50: −log10 of the molar value.
Readout name: pEC50

1) NCCc1c[nH]c2ccc(O)cc12 [serotonin] | 7.98

---

Biological target: Ms5HT1B receptor (Manduca sexta)
Sequence (Q0GMY1 1-448): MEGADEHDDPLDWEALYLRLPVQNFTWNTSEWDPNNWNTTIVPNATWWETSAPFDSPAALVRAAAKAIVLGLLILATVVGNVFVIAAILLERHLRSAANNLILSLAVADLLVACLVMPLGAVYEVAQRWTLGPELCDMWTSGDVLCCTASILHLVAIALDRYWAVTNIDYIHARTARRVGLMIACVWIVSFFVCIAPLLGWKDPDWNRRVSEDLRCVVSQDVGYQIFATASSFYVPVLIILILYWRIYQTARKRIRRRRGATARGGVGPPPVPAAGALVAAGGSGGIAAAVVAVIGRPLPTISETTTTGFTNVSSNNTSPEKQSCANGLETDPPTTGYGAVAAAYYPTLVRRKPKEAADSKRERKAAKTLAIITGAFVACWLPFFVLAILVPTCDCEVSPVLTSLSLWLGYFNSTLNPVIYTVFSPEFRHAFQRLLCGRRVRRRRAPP
Assay: two-electrode voltage clamp, Xenopus oocytes, endogenous calcium-dependent chloride current
pEC50: −log10 of the molar value.
Readout name: pEC50

1. NCCc1c[nH]c2ccc(O)cc12 | 7.24

Numbers sourced from paper PMC3726668.
